# Test system: L1210 leukemia ip in BDF1 mice, survival T/C
# EXPERIMENTAL_DETAILS: NCI In Vivo Anticancer Drug Screen. Data for tumor model L1210 Leukemia (intraperitoneal) in B6D2F1 (BDF1) mice
# CONDITION_PARAMETERS: endpoint: mean survival time; dose: 50.0 mg/kg/injection; schedule: Q01DX001 (ip); vehicle: saline; higher = longer survival
Toxic doses and inconclusive results are not listed.
MEASURE: T/C

{"columns": ["COMPOUND", "OBSERVED_RESULT"],
 "data": [
  ["C[n+]1ccc(C=O)cc1", "102 % of control"],
  ["O=C(CCCC(=O)N/N=C/c1cc(Cl)cc(Cl)c1O)N/N=C\\c1cc(Cl)cc(Cl)c1O", "100 % of control"],
  ["C1COC(CNCC2CCCO2)C1 (stereo not drawn)", "109 % of control"],
  ["Clc1cccc(Cl)c1/C=N/Nc1nnc(N/N=C/c2c(Cl)cccc2Cl)c2ccccc12", "103 % of control"],
  ["CCOC(=O)C1CN(c2ccccc2)C(=O)C1=O (stereo not drawn)", "104 % of control"],
  ["CCCCCCCNC(=S)NNC(=O)CCCC(=O)NNC(=S)NCCCCCCC", "98 % of control"],
  ["CN=[N+]([O-])C1(OC(C)=O)CCCC1", "113 % of control"],
  ["O=C(CCCC(=O)NNC(=O)Nc1cccc(Cl)c1)NNC(=O)Nc1cccc(Cl)c1", "96 % of control"]
]}

---

# Tested on: L1210 leukemia ip in BDF1 mice, survival T/C
# EXPERIMENTAL_DETAILS: NCI In Vivo Anticancer Drug Screen. Data for tumor model L1210 Leukemia (intraperitoneal) in B6D2F1 (BDF1) mice
# CONDITION_PARAMETERS: endpoint: mean survival time; dose: 50.0 mg/kg/injection; schedule: Q01DX009 (ip); vehicle: saline
Inconclusive results and toxic doses are left out. Rule as the data show it: active = T/C of 150% or more; inactive = T/C below 125%.
Possible outcomes: yes (active), no (inactive)

{"columns": ["MOLECULE", "LABEL_VALUE"],
 "data": [
  ["NC(CSC(c1ccccc1)(c1ccccc1)c1ccc(F)cc1)C(=O)O (stereo not drawn)", "yes"],
  ["O=P(Oc1ccccc1)(N1CCCC1)N1CCCC1", "no"],
  ["NCC1CCCO1 (stereo not drawn)", "no"],
  ["COc1ccc(OC=O)cc1OC", "no"],
  ["CN(C)CCOC(=O)COc1ccc(Cl)cc1", "no"],
  ["O=S1(=O)CC(O)C(Cl)C1 (stereo not drawn)", "no"],
  ["COC(=O)C(=[N+]=[N-])C(F)(F)F", "no"],
  ["CCN(CC)C(=O)c1ccncc1", "no"]
]}

---

# Test system: L1210 leukemia ip in BDF1 mice, survival T/C
# EXPERIMENTAL_DETAILS: NCI In Vivo Anticancer Drug Screen. Data for tumor model L1210 Leukemia (intraperitoneal) in B6D2F1 (BDF1) mice
# CONDITION_PARAMETERS: endpoint: mean survival time; dose: 400.0 mg/kg/injection; schedule: Q01DX001 (ip); vehicle: saline; higher = longer survival
Toxic doses and inconclusive results are not listed.
Measured T/C of individual entries

{"columns": ["COMPOUND", "T/C"],
 "data": [
  ["CCCCCCCCCCCCCCCC(=O)OCC1OC(n2ccc(N)nc2=O)C(O)C1O (stereo unspecified)", "156 % of control"],
  ["NC(CCCCN=Cc1ccccc1O)C(=O)O (stereo unspecified)", "91 % of control"],
  ["C(=N\\N1CCN(/N=C/c2cccc(OCc3ccccc3)c2)CC1)/c1cccc(OCc2ccccc2)c1", "90 % of control"],
  ["COS(=O)(=O)c1ccc[n+](C)c1", "96 % of control"],
  ["CN(N=O)c1ccccc1", "102 % of control"],
  ["CCCCC(=O)N/N=C\\c1ccc(OCc2ccccc2)cc1", "87 % of control"]
]}
